system: SW-620 colon; experiment: NCI-60 one-dose screen, 48 h; details: 10 µM unless noted
Compounds without any hit were thinned out: in the full panel of roughly 83,000, 20% have a hit. Active and inactive are the calls of the source. Rule for the calls: active = growth percent below 10; inactive = the rest.
Thanks in advance; please answer with one of these: 1 (active), -1 (inactive)

Below are worked cases with known answers.
Query :: Just curious, what result did COc1cccc(-c2nc3sccn3c2/C=C/C(=O)c2ccc(C(F)(F)F)cc2)c1 get here?
Result :: -1

Query :: What did this assay record as the result for CCN1C(=O)N(CC)C2Nn3c(s/c(=C\c4ccc(Cl)cc4Cl)c3=O)=NC21 (stereo unspecified) ?
Result :: -1

Next:
Query :: Given COC(=O)[C@]12CC[C@@H](C)[C@H](C)[C@@H]1C1=CC[C@@H]3[C@@]4(C)C(C=O)=C[C@@](C)(COC(C)=O)C4=CC[C@@]3(C)[C@]1(C)CC2 , state the outcome it received in this test.
Result :: 1

Query :: // outcome(item) with item = CCN1C(=O)N(CC)C2Nn3c(s/c(=C4\C(=O)N(C)c5ccccc54)c3=O)=NC21 (stereo unspecified)
Result :: -1

Query :: Answer briefly: the call reported for Nc1nc(N)c2c(n1)NC(c1ccccc1)C1CCc3ccccc3C1=N2 (stereo unspecified) in this assay.
Result :: -1

Query :: What call does the record list for N#Cc1c(N)nn(C(=O)c2ccc(NC(=O)c3ccccn3)cc2)c1-c1ccc(Cl)cc1 ?
Result :: -1

Query :: Record lookup: outcome of this test for COc1cccc(-c2nn(-c3ccccc3)cc2-c2ccnc(NCCCNC(=O)c3ccccc3)c2)c1 ?
Result :: -1

Query :: Dear colleague, could you share the recorded outcome for COc1cc2ncn3c(=O)c4c5c(sc4nc3c2cc1OC)CCCC5 when you have a moment?
Result :: -1

Query :: Call for entry COc1ccc(-c2nc(SCCC(C)C)nc(N/N=C\c3ccccc3O)c2C#N)cc1 :
Result :: -1

Query :: Hi team, can someone confirm the assay call for CCN(CC)c1nc(SCC(=O)Nc2nc3ccc(C)cc3s2)nc(-c2ccccc2)c1C#N ?
Result :: -1

Query :: Lab log entry: C=C(C)[C@@H]1CC[C@]2(C(=O)NC3CCCCC3)CC[C@]3(C)[C@H](CC[C@@H]4[C@@]5(C)CCC(=O)C(C)(C)[C@@H]5CC[C@]43C)[C@@H]12 — outcome as called in the assay?
Result :: -1
